- experimentalSystem: Luciferin 4-monooxygenase (Photinus pyralis)
- Sequence (P08659 whole entry): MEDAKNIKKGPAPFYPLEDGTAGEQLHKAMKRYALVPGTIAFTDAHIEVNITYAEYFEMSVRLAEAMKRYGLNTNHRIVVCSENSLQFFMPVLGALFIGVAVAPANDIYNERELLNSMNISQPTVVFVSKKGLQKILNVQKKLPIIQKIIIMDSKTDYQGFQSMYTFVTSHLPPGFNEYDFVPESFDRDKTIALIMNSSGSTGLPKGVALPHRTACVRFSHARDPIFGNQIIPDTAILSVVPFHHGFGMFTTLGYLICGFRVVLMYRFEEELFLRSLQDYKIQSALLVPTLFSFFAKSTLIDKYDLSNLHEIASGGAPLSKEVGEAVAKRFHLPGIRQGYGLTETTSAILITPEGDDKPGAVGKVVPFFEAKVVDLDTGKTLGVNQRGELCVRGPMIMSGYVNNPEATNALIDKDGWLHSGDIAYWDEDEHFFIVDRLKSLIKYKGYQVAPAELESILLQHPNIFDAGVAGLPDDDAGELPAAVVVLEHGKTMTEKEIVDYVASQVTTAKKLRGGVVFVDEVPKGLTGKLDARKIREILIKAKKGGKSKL
- experimentalConditions: read-out: AC50
- Description: GSK_PKIS: Inhibition of Firefly Luciferase (Data from PubChem: AID 652016) [NIH NCATS]
endpoint: AC50 (µM)

In [3]: df
Out[3]:
                                   compound                        experimentalsystem  measvalue
0  COC(=O)Nc1nc2cc(Oc3ccc(NC(=O)Nc4ccccc4)cc3)ccc2[nH]1.Cl [GW694590A]  Luciferin 4-monooxygenase (Photinus pyralis)       14.6
1  Cl.NS(=O)(=O)c1cccc(Nc2cc(-c3ccc(F)cc3)n[nH]2)c1 [GW824645A]  Luciferin 4-monooxygenase (Photinus pyralis)       11.6
2  CNC(=O)c1cncc(/C=C/c2c(Cl)cccc2Cl)c1 [GW445014X]  Luciferin 4-monooxygenase (Photinus pyralis)       16.3
